- Test system: secreted E2 ectodomain (sE2), HCV E2 residues 384-661 (Hepatitis C virus, isolate H77C) (UniProt P27958)
- Protocol text: SPR (Biacore T200); sE2 amine-coupled to a CM5 chip, CD81-LEL injected; 1:1 model, Kd = koff/kon
Readout label: Kd (nM)
One number for each entry, in nM.

Ask: Return reported Kd; argument: CD81 large extracellular loop (CD81-LEL) (receptor, UniProt P60033 113-201, looked up, not shown: small tags and cut ends) FVNKDQIAKDVKQFYDQALQQAVVDDDANNAKAVVKTFHETLDCCGSSTLTALTTSVLKNNLCPSGSNIISNLFKEDCHQKIDDLFSGK
Reply: 7
